Cited source for all entries: ChEMBL document CHEMBL2062364

- assay_name: Drug uptake in tumor of SCID mouse xenografted with PTEN-deficient human PC3 cells at 300 mg/kg, po BID measured after 3 hrs
- Type: ADME, organism-based, Neoplasm, PC-3
- Set-up: dose 300 mg/kg, route oral
- recorded_conditions: read-out: Drug uptake
property_name: concentration at 3 h (µM)
Express your answer in µM, writing the number without its unit.

Ask: Fill in the blank: the reported concentration at 3 h of Cn1c(Cc2nc(N3CCOCC3)cc(=O)[nH]2)nc2ccccc21 is ____.
Result: 6

###

- assay_name: Inhibition of mTORC2-mediated Akt phosphorylation at Ser473 residue in PTEN-deficient human PC3 cells after 2 hrs by Western blot analysis
- Format: cell-based
- recorded_conditions: PC-3, 2 h
property_name: IC50 (nM)
Provide only the numeric value, understood in nM.

Ask: Need IC50 of Cc1cc(C(C)Nc2ccccc2)c2nc(N3CCOCC3)cc(=O)n2c1 (centres undefined) , thanks.
Result: 10

Ask: Try this compound too: Cn1c(Cc2nc(N3CCOCC3)cc(=O)[nH]2)nc2ccccc21
Result: 76

Ask: How about O=c1cc(N2CCOCC2)nc(Cc2nc3ccc(F)cc3[nH]2)[nH]1 ?
Result: 41

Ask: Consider next the compound Cc1cc(C(C)Nc2ccccc2)c2oc(N3CCOCC3)cc(=O)c2c1 (centres undefined) in the same way.
Result: 3

###

- assay_name: Tmax in CB17/ICR-Prkdc SCID mouse at 10 mg/kg, po
- Assay type: ADME, organism-based
- Parameters: dose 10 mg/kg, route oral
- recorded_conditions: in vivo
property_name: Tmax (min)
API: value field is a number in min; no unit string.

Ask: Fill in the blank: the reported Tmax of Cn1c(Cc2nc(N3CCOCC3)cc(=O)[nH]2)nc2ccccc21 is ____.
Result: 30

###

- assay_name: Drug uptake in tumor of SCID mouse xenografted with PTEN-deficient human PC3 cells at 300 mg/kg, po BID measured after 6 hrs
- Type: ADME, organism-based, Neoplasm, PC-3
- Design: dose 300 mg/kg, route oral
- recorded_conditions: read-out: Drug uptake
property_name: concentration at 6 h (µM)
Output spec: scalar in µM, unitless text.

Ask: Request the reported concentration at 6 h associated with Cn1c(Cc2nc(N3CCOCC3)cc(=O)[nH]2)nc2ccccc21
Result: 3.6

###

- assay_name: Drug uptake in tumor of SCID mouse xenografted with PTEN-deficient human PC3 cells at 300 mg/kg, po BID measured after 0.5 hrs
- Assay type: ADME, organism-based, Neoplasm, PC-3
- Set-up: dose 300 mg/kg, route oral
- recorded_conditions: read-out: Drug uptake
property_name: concentration at 0.5 h

Ask: I have this compound here, Cn1c(Cc2nc(N3CCOCC3)cc(=O)[nH]2)nc2ccccc21 , and I need its recorded concentration at 0.5 h.
Result: 13 µM

###

- assay_name: Plasma concentration in SCID mouse xenografted with PTEN-deficient human PC3 cells at 300 mg/kg, po BID measured after 1 hr
- Assay type: ADME, organism-based, PC-3
- Set-up: dose 300 mg/kg, route oral
property_name: concentration at 1 h (µM)
State just the number; it will be interpreted in µM.

Ask: Dear colleague, I am looking for the recorded concentration at 1 h of the following compound: Cn1c(Cc2nc(N3CCOCC3)cc(=O)[nH]2)nc2ccccc21
Result: 22

###

- target_system: Phosphatidylinositol 4,5-bisphosphate 3-kinase catalytic subunit beta isoform (Homo sapiens, UniProt P42338)
- Sequence (P42338 whole entry, canonical isoform): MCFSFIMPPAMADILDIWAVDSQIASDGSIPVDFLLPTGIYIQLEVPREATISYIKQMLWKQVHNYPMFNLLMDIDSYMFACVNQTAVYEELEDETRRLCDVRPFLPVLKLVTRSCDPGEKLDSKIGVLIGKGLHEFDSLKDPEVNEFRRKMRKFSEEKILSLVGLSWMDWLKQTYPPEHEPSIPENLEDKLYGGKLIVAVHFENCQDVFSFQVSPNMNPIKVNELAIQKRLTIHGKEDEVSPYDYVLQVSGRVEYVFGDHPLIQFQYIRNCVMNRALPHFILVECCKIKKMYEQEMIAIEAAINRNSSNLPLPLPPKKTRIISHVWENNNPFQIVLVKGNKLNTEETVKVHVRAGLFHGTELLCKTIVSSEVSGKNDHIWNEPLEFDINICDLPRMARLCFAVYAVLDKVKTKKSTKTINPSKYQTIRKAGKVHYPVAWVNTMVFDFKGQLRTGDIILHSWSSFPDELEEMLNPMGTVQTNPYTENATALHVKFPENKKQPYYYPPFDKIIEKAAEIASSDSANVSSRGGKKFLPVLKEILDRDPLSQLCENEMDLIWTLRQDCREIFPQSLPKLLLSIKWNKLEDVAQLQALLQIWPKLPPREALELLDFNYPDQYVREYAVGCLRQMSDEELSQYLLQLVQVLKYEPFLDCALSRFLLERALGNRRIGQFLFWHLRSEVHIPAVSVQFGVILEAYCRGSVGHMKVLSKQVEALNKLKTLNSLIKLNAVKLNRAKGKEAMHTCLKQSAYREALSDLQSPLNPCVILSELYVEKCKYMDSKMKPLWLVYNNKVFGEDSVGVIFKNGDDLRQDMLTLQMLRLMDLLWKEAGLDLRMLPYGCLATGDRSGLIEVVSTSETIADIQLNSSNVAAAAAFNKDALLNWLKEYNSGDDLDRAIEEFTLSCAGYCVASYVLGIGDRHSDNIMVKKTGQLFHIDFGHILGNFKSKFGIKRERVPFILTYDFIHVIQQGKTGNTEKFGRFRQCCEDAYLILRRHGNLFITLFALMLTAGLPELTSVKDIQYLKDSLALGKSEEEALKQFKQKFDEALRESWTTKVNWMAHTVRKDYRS
- assay_name: Inhibition of human PI3Kbeta-mediated Akt phosphorylation at Ser473 residue expressed in mouse MEF-3T3 cells after 0.5 to 2 hrs by Western blot analysis
- Format: cell-based
property_name: pIC50
Scale explanation: pIC50 corresponds to minus log10 of a concentration expressed in moles per litre.

Ask: Item Cn1c(Cc2nc(N3CCOCC3)cc(=O)[nH]2)nc2ccccc21 has what recorded pIC50?
Result: 7.07

###

Assign IC50 to each entry below.
- target_system: Phosphatidylinositol 4,5-bisphosphate 3-kinase catalytic subunit beta isoform (Homo sapiens, UniProt P42338)
- assay_name: Inhibition of human PI3Kbeta-mediated Akt phosphorylation at Ser473 residue expressed in PTEN-deficient human PC3 cells by chemiluminescence assay
- Assay type: cell-based, PC-3
Note: unit nM is implicit; provide only the numeric part.

Ask: What IC50 value was documented for this compound, O=c1cc(N2CCOCC2)nc(Cc2nc3cccc(-c4ccccc4)c3o2)[nH]1 ?
Result: 177

Ask: How about this compound: O=c1cc(N2CCOCC2)nc(Cc2nc3c(-c4ccncc4)cccc3o2)[nH]1
Result: 47

Ask: Ok, now O=c1cc(N2CCOCC2)nc(Cc2nc3cc(F)ccc3o2)[nH]1
Result: 26

Ask: Input Cn1c(Cc2nc(N3CCOCC3)cc(=O)[nH]2)nc2ccc(F)cc21
Result: 289

Ask: Queued: Cc1cc(F)ccc1Oc1cccc2c(=O)cc(N3CCOCC3)[nH]c12
Result: 72

Ask: Also, O=c1cc(N2CCOCC2)nc(Cc2nc3ccccc3[nH]2)[nH]1 please.
Result: 665

Ask: Entry to check: O=c1cc(N2CCOCC2)nc(Cc2nc3cc(Br)ccc3[nH]2)[nH]1
Result: 85

Ask: Also need Cn1c(Cc2nc(N3CCOCC3)cc(=O)[nH]2)nc2cc(F)ccc21 , thanks.
Result: 16

Ask: Follow-up item: O=c1cc(N2CCOCC2)nc(Cc2nc3ccccc3n2-c2ccccc2)[nH]1
Result: 8

Ask: // repeat for O=c1cc(N2CCOCC2)nc(Cc2nc3c(-c4ccccc4)c(F)ccc3o2)[nH]1 and report
Result: 6

Ask: Would you kindly repeat that for CCn1c(Cc2nc(N3CCOCC3)cc(=O)[nH]2)nc2ccccc21 ?
Result: 26

Ask: Next up: O=c1cc(N2CCOCC2)nc(Cc2nc3ccccc3n2Cc2ccccc2)[nH]1
Result: 105

Ask: Next entry: O=c1cc(N2CCOCC2)nc(Cc2nc3c(-c4ccccc4)cccc3o2)[nH]1
Result: 13

Ask: COc1ccc2[nH]c(Cc3nc(N4CCOCC4)cc(=O)[nH]3)nc2c1 , same question.
Result: 475

Ask: Continue with Cn1c(Cc2nc(N3CCOCC3)cc(=O)[nH]2)nc2c(-c3ccccc3)cccc21
Result: 26

Ask: Now consider O=c1cc(N2CCOCC2)nc(Cc2nc3c(-c4cccnc4)cccc3o2)[nH]1 and answer again.
Result: 44

Ask: Cool, now O=c1cc(N2CCOCC2)nc(Cc2nc3ccc(Cl)cc3[nH]2)[nH]1
Result: 63

Ask: Try this compound too: COCCn1c(Cc2nc(N3CCOCC3)cc(=O)[nH]2)nc2cc(F)ccc21
Result: 109

Ask: Another compound to check: O=c1cc(N2CCOCC2)nc(Cc2nc3ccc(C(F)(F)F)cc3[nH]2)[nH]1
Result: 961

Ask: Item: O=c1cc(N2CCOCC2)nc(Cc2nc3ccccc3o2)[nH]1
Result: 62

Ask: Moving on to the next compound: O=c1cc(N2CCOCC2)nc(Cc2nc3cccc(F)c3o2)[nH]1
Result: 88

Ask: Check Cc1cccc2oc(Cc3nc(N4CCOCC4)cc(=O)[nH]3)nc12 too.
Result: 75

Ask: Similarly, Cn1c(Cc2nc(N3CCOCC3)cc(=O)[nH]2)nc2ccccc21 ?
Result: 76

Ask: Same question, O=c1cc(N2CCOCC2)nc(Cc2nc3c(-c4ccccc4)cccc3[nH]2)[nH]1 this time
Result: 65

Ask: Next entry: O=c1cc(N2CCOCC2)nc(Cc2nc3c(-c4ccccn4)cccc3o2)[nH]1
Result: 113

Ask: Okay, and Cc1cc(C(C)Nc2ccccc2)c2oc(N3CCOCC3)cc(=O)c2c1 (configuration not stated) ?
Result: 3

Ask: And what about the compound Cc1ccc2nc(Cc3nc(N4CCOCC4)cc(=O)[nH]3)oc2c1 ?
Result: 143

###

- assay_name: AUC (0 to 24 hrs) in CB17/ICR-Prkdc SCID mouse at 6 mg/kg, iv
- Type: ADME, organism-based
- Design: time < 24 hr, dose 6 mg/kg, route intravenous
- recorded_conditions: plasma
property_name: AUC(0-t) at 24 h (ng·h/mL)
# number only, unit ng·h/mL dropped from output

Ask: Which measured AUC(0-t) at 24 h value corresponds to Cn1c(Cc2nc(N3CCOCC3)cc(=O)[nH]2)nc2ccccc21 ?
Result: 1950

###

- target_system: Phosphatidylinositol 4,5-bisphosphate 3-kinase catalytic subunit beta isoform (Homo sapiens, UniProt P42338)
- assay_name: Inhibition of N-terminus poly-His tagged human PI3Kbeta expressed in baculovirus infected insect […] cells coexpressing p85alpha using PI(4,5)P2 as substrate preincubated with compound for 15 mins measured after 10 mins by HTRF assay
property_name: pIC50
As a rule, pIC50 stands for the negative log10 of the concentration, concentration in M.

Ask: Request the reported pIC50 associated with Cc1cc(C(C)Nc2ccccc2)c2oc(N3CCOCC3)cc(=O)c2c1 (stereo not given)
Result: 7.55

Ask: # repeat for O=c1cc(N2CCOCC2)nc(Cc2nc3ccccc3n2-c2ccccc2)[nH]1
Result: 7.12

Ask: Record: O=c1cc(N2CCOCC2)nc(Cc2nc3c(-c4cccnc4)cccc3o2)[nH]1
Result: 6.81

Ask: And then O=c1cc(N2CCOCC2)nc(Cc2nc3cccc(-c4ccccc4)c3o2)[nH]1 , what is it?
Result: 7.05

Ask: For Cn1c(Cc2nc(N3CCOCC3)cc(=O)[nH]2)nc2c(-c3ccccc3)cccc21 then?
Result: 7.24
